# system_under_test: CCR4 (Homo sapiens)
# Construct: host or cells: CHO-K1
# Sequence (P51679 1-360): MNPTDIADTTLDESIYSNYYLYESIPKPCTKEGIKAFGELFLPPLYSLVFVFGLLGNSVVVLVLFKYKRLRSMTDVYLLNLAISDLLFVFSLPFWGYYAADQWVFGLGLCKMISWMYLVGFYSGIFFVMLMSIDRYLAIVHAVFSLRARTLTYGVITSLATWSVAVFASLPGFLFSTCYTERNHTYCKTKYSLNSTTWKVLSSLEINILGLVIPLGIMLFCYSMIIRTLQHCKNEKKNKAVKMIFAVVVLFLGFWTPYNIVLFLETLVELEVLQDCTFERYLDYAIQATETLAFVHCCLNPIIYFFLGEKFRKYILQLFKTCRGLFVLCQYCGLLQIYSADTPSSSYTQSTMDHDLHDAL
# method_summary: PathHunter eXpress CCR4 CHO-K1 β-Arrestin GPCR Assay, antagonist format with CCL22
# Assay type: cell-based
# test_parameters: 1 nM CCL22, 0.003 uM
recorded_metric: Raw Data

> print(dat)
                            record.sequence    system.under.test  measurement
1  ACLSCARHGNQCA [24-12-00-N001, bicyclic peptide ligand, TATA scaffold, from CCR4 cell-based selection]  CCR4 (Homo sapiens)       230925
2  ACQLTCLPPPRQPGCA [24-15-00-N001, bicyclic peptide ligand, TATA scaffold, from CCR4 cell-based selection]  CCR4 (Homo sapiens)       269008
3  ACQLTCLTPARQPGCA [24-14-00-N001, bicyclic peptide ligand, TATA scaffold, from CCR4 cell-based selection]  CCR4 (Homo sapiens)       222439
4  ACRAVHSLRCLTTCA [24-17-00-N001, bicyclic peptide ligand, TATA scaffold, from CCR4 cell-based selection]  CCR4 (Homo sapiens)       292052

---

# system_under_test: CCR4 (Homo sapiens, UniProt P51679)
# Construct: host or cells: CHO-K1
# Sequence (P51679 1-360): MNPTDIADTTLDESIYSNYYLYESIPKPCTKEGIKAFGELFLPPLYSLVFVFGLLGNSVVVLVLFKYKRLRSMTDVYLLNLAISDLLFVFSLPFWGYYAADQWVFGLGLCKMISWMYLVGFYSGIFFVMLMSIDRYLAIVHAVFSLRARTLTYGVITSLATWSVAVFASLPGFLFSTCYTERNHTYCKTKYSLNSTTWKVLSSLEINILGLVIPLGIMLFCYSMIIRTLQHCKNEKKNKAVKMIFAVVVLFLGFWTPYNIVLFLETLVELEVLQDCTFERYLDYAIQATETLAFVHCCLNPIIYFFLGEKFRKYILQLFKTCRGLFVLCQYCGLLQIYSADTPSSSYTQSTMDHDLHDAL
# method_summary: PathHunter eXpress CCR4 CHO-K1 β-Arrestin GPCR Assay, antagonist format with CCL22
# Assay type: cell-based
# test_parameters: 10 nM CCL22, 50 uM
# reported Raw Data; entries follow
recorded_metric: Raw Data

> print(dat)
                            record.sequence  recorded.metric  measurement
1  ACQTLCNTAEDIRCA [24-16-00-N001, bicyclic peptide ligand, TBMB scaffold, from CCR4 cell-based selection]         Raw Data       138655
2  ACQLTCLPPPRQPGCA [24-15-00-N001, bicyclic peptide ligand, TATA scaffold, from CCR4 cell-based selection]         Raw Data        55746
3  ACLSCARHGNQCA [24-12-00-N001, bicyclic peptide ligand, TATA scaffold, from CCR4 cell-based selection]         Raw Data       134429
4  ACRAVHSLRCLTTCA [24-17-00-N001, bicyclic peptide ligand, TATA scaffold, from CCR4 cell-based selection]         Raw Data       153988
